Origin of values: patent US10315996B2

IC50 listing for selected compounds.
- Tested on: IL-17A production in anti-CD3/anti-CD28 stimulated peripheral blood mononuclear cells (PBMCs)
- TEST NAME: Peripheral blood mononuclear cell (PBMC) IL-17 assay
- Format: cell-based
- CONDITION: Homo sapiens, 120 h, inhibition of IL-17A production, PBMCs isolated from human blood, 5 days incubation, IL-17 ELISA, read-out: mean pIC50 (converted)
- Experimental: PBMC IL-17 Assay Description This assay is designed to measure the levels of IL-17A secreted from anti-CD3/anti-CD28 stimulated PBMCs with the aim of measuring RORγ mediated inhibition of IL-17A production. […] After incubation the plates were spun down at 1500 rpm for 4 minutes and the supernatant was collected. Subsequently, the IL-17A levels in the supernatants was determined using an IL-17 ELISA kit (human IL-17 DuoSet, R&D systems) according to manufacturer's protocol. […]
QUANTITY KIND: IC50

RECORD SMILES	RESULT
CCN(C(=O)c1ccc(NC(=O)Cc2ccc(S(=O)(=O)CC3CC3)cc2)cc1)c1ccon1	≤ 1000 nM
CCN(C(=O)c1ccc(NC(=O)Cc2ccc(S(=O)(=O)NC3CC3)cc2)cc1)c1ccc(C)cc1	≤ 1000 nM
C[C@H](NC(=O)c1ccc(NC(=O)Cc2ccc(S(=O)(=O)CC3CC3)cc2)cc1)c1ccccc1F	≤ 1000 nM
CCCN(CC1CC1)C(=O)c1ccc(NC(=O)Cc2ccc(S(=O)(=O)CC3CC3)cc2)cc1	≤ 1000 nM
CC(C)(NC(=O)c1ccc(NC(=O)Cc2ccc(S(=O)(=O)CC3CC3)cc2)cc1)c1ccccc1	≤ 1000 nM

---

- TARGET OF ASSAY: RORγ (Homo sapiens)
- Construct: expressed in transfected cells; host or cells: 293FT cells (Invitrogen), expression vector pFN26A (Promega)
- Sequence (P51449 269-508 limits assumed): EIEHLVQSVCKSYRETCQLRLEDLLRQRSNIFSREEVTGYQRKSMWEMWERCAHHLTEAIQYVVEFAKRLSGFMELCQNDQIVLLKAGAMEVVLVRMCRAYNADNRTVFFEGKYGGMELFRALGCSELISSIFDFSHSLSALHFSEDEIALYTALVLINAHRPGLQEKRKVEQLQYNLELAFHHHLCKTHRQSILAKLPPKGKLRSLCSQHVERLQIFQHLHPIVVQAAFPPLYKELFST
- TEST NAME: RORγ GAL4 reporter gene assay
- Type: cell-based
- CONDITION: inhibition of RORγ activity, GAL4-RORγ-LBD luciferase reporter in 293FT cells, overnight incubation; read-out: mean pIC50 (converted)
- Protocol: Example inhibitors 1-166 were tested for their ability to inhibit RORγ activity in a RORγ GAL4 reporter gene assay. The assay procedure and results are described below. RORγ GAL4 Reporter Gene Assay Description A GAL4 one-hybrid reporter system employing luciferase readout was established to determine inhibition of RORγ in 293FT cells. […] For compound screening, the cells were harvested (as described above) and counted. […]
IC50 listing for selected compounds.

COMPOUND	IC50
N#CC(NC(=O)c1ccc(NC(=O)Cc2ccc(S(=O)(=O)CC3CC3)cc2)cc1)c1cccs1 (stereo not shown)	≤ 1000 nM
CCN(C(=O)c1ccc(NC(=O)Cc2ccc(S(=O)(=O)CC3CC3)cc2)cc1)c1c(C)noc1C	≤ 100 nM
CCOC(=O)c1cc2c(s1)CN(C(=O)c1ccc(NC(=O)Cc3ccc(S(=O)(=O)CC4CC4)cc3)cc1)CC2	≤ 1000 nM
CCCCN(C(=O)c1ccc(NC(=O)Cc2ccc(S(=O)(=O)CC3CC3)cc2)cc1)c1nccs1	≤ 100 nM
O=C(Cc1ccc(S(=O)(=O)CC2CC2)cc1)Nc1ccc(C(=O)N2CCCCC2CN2CCOCC2)cc1 (stereo not shown)	≤ 1000 nM
CC(N(C(=O)c1ccc(NC(=O)Cc2ccc(S(=O)(=O)NC3CC3)cc2)cc1)c1ccccc1)C(F)(F)F (stereo not shown)	≤ 100 nM
N#CC(NC(=O)c1ccc(NC(=O)Cc2ccc(S(=O)(=O)CC3CC3)cc2)cc1)c1ccccc1 (stereo not shown)	≤ 1000 nM
